Each entry below carries its reported log10 minimal effective concentration.
# Test system: iCell endothelial cells (human iPSC-derived ECs)
# assay_procedure: Tube formation (tubulogenesis) assay in iCell endothelial cells, 18 h
# Type: cell-based
# stated_conditions: Homo sapiens, Endothelial cell, iPSC-EC tube formation, 18 hr, top concentration 100.00 µM, read-out: endo.tta.18hr POD
Where a name gives a salt, the structure may show the parent alone.
Record value = log10 of minimal effective concentration given in µM.

Solved entries:
# compound, log10 minimal effective concentration
rows = [
    ("Oc1ccccc1-c1ccc(Cl)cc1 [2'-OH PCB3]", 1.48),
    ("O=C1C=CC(=O)C(c2ccc(Cl)cc2)=C1 [4-Cl-BQ, 2-(4-Chlorophenyl)benzo-2,5-quinone]", 1.36),
    ("O=S(=O)(O)Oc1ccc(-c2ccc(Cl)cc2)cc1 [4'-yl PCB 3 sulfate]", 1.23),
]

Identify measured log10 minimal effective concentration corresponding to O=S(=O)(O)Oc1cc(Cl)ccc1-c1ccccc1 [2-yl PCB 3 sulfate]
2.00

Identify measured log10 minimal effective concentration corresponding to O=S(=O)(O)Oc1ccc(-c2cccc(Cl)c2)cc1Cl [4-yl PCB 11 sulfate]
1.32

Identify measured log10 minimal effective concentration corresponding to Clc1cccc(-c2cccc(Cl)c2)c1 [PCB11]
2.00

Identify measured log10 minimal effective concentration corresponding to Oc1cc(Cl)cc(-c2cccc(Cl)c2)c1 [5-OH PCB 11]
0.84

---

# Test system: iPSC-CMs, iPSC-ECs and HUVECs phenotypes
# assay_procedure: ToxPi 2.0 integration of POD values and physicochemical descriptors
# Set-up: species or system human
# stated_conditions: ToxPi-scaled (0-1) score; HUVECs, tube formation, 18 h
Where a name gives a salt, the structure may show the parent alone.
Each entry below carries its reported huvec.ttl.18hr.

# molecule, system_tested, measured_endpoint, measurement
data = [
    ("Oc1ccc(O)c(-c2ccc(Cl)cc2)c1 [2',5'-diOH-PCB 3, 4-Chloro-2′,5′-dihydroxybiphenyl]", "iPSC-CMs, iPSC-ECs and HUVECs phenotypes", "huvec.ttl.18hr", 0.663),
    ("Clc1ccc(-c2ccccc2)cc1", "iPSC-CMs, iPSC-ECs and HUVECs phenotypes", "huvec.ttl.18hr", 0.7484),
    ("O=S(=O)(O)Oc1ccc(-c2ccc(Cl)cc2)cc1 [4'-PCB 3 sulfate]", "iPSC-CMs, iPSC-ECs and HUVECs phenotypes", "huvec.ttl.18hr", 0),
]

Please indicate recorded huvec.ttl.18hr of Clc1ccc(Cl)c(-c2c(Cl)ccc(Cl)c2Cl)c1Cl [(+)-PCB 136, 2,2′,3,3′,6,6′-hexachlorobiphenyl] measured with iPSC-CMs, iPSC-ECs and HUVECs phenotypes.
0

---

Each entry below carries its reported minimal effective concentration.
# Tested on: HUVECs
# assay_procedure: Tube formation (tubulogenesis) assay in HUVECs, 18 h
# Assay type: cell-based, human
# stated_conditions: Homo sapiens, HUVEC, 18 h, HUVECs, top concentration 100.00 µM, read-out: huvec.ttl.18hr POD
Report the value in µM with no unit label.

Solved entries:
# compound, minimal effective concentration, µM
data = [
    ("COc1ccc(-c2cccc(Cl)c2)cc1Cl [4-OMe PCB11]", 1.22),
    ("O=C1C=CC(=O)C(c2ccc(Cl)cc2)=C1 [4-Cl-BQ, 2-(4-Chlorophenyl)benzo-2,5-quinone]", 0.25),
    ("Oc1ccc(-c2ccc(Cl)cc2)cc1 [4'-OH PCB3]", 5.16),
]

Identify measured minimal effective concentration corresponding to Oc1cccc(-c2ccc(Cl)cc2)c1 [3'-OH PCB3]
3.26

---

# Test system: iCell cardiomyocytes (human iPSC-derived cardiomyocytes)
# assay_procedure: Intracellular Ca2+ flux / beating parameters in iCell cardiomyocytes (FLIPR tetra), 90 min or 24 h
# Assay type: cell-based
# stated_conditions: Homo sapiens, Cardiomyocyte, 1.5 h, 10.00 µM; 0.00 µM = 100.00; read-out: cm.amp.avg.90min
Structures can show the parent of a compound that is named as a salt.
measured_endpoint: activity at 10 µM (%)
Report the value in % with no unit label.

# compound, activity at 10 µM / %
rows = [
    ("COc1ccc(-c2ccc(Cl)cc2)cc1 [4'-OMe PCB3]", 103),
]

Identify measured activity at 10 µM corresponding to O=S(=O)(O)Oc1ccc(-c2cccc(Cl)c2)cc1Cl [4-yl PCB 11 sulfate]
96.9

Identify measured activity at 10 µM corresponding to Oc1ccccc1-c1ccc(Cl)cc1 [2'-OH PCB3]
0

Identify measured activity at 10 µM corresponding to Clc1cccc(-c2cccc(Cl)c2)c1 [PCB11]
94.8

---

# Tested on: iPSC-CMs, iPSC-ECs and HUVECs phenotypes
# assay_procedure: ToxPi 2.0 integration of POD values and physicochemical descriptors
# Set-up: species or system human
# stated_conditions: ToxPi-scaled (0-1) score; iPSC cardiomyocytes, 24 h
Counter-ions that a name gives are not always drawn.
measured_endpoint: cm.mii.24hrs
Lab note: record just the number, no unit beside it.

Solved entries:
# compound, measured_endpoint, measurement
data = [
    ("Oc1ccc(O)c(-c2ccc(Cl)cc2)c1 [2',5'-diOH-PCB 3, 4-Chloro-2′,5′-dihydroxybiphenyl]", "cm.mii.24hrs", 1),
    ("Clc1ccc(Cl)c(-c2c(Cl)ccc(Cl)c2Cl)c1Cl [(+)-PCB 136, 2,2′,3,3′,6,6′-hexachlorobiphenyl]", "cm.mii.24hrs", 0.1793),
    ("O=S(=O)(O)Oc1cccc(-c2ccc(Cl)cc2)c1 [3'-PCB 3 sulfate]", "cm.mii.24hrs", 0),
    ("COc1cc(Cl)c(-c2cc(Cl)ccc2Cl)cc1Cl [4-OMe-PCB 52, 4-methoxy-2,2′,5,5′-tetrachlorobiphenyl]", "cm.mii.24hrs", 0.763),
    ("O=S(=O)(O)Oc1cc(-c2ccccc2)ccc1Cl [3-PCB 3 sulfate]", "cm.mii.24hrs", 0.391),
]

Identify measured cm.mii.24hrs corresponding to O=S(=O)(O)Oc1cc(Cl)c(-c2cc(Cl)ccc2Cl)cc1Cl [4-PCB 52 sulfate]
0.2133

Identify measured cm.mii.24hrs corresponding to Clc1cccc(-c2cccc(Cl)c2)c1 [PCB 11, 3,3′-Dichlorobiphenyl]
0.6195

---

Each entry below carries its reported activity at 1 µM.
# System: iCell cardiomyocytes (human iPSC-derived cardiomyocytes)
# assay_procedure: Intracellular Ca2+ flux / beating parameters in iCell cardiomyocytes (FLIPR tetra), 90 min or 24 h
# Assay type: cell-based
# stated_conditions: Homo sapiens, Cardiomyocyte, 24 h, 1.00 µM; 0.00 µM = 100.00; read-out: cm.amp.avg.24hrs
Report the value in % with no unit label.

Solved entries:
# molecule, unit_label, activity at 1 µM
data = [
    ("COc1ccc(-c2cccc(Cl)c2)cc1Cl [4-OMe PCB11]", "%", 107),
    ("COc1ccc(-c2ccc(Cl)cc2)cc1 [4'-OMe PCB3]", "%", 81.2),
    ("Oc1ccc(O)c(-c2ccc(Cl)cc2)c1 [2',5'-DiOH PCB3]", "%", 141),
]

The record that follows has no activity at 1 µM shown yet.
Identify measured activity at 1 µM corresponding to Clc1ccc(-c2ccccc2)cc1 [PCB3]
87.1

---

# Test system: iPSC-CMs, iPSC-ECs and HUVECs phenotypes
# assay_procedure: ToxPi 2.0 integration of POD values and physicochemical descriptors
# Parameters: species or system human
# stated_conditions: ToxPi-scaled (0-1) score; iPSC cardiomyocytes, 90 min
Structures can show the parent of a compound that is named as a salt.
Each entry below carries its reported cm.mito.90min.
Lab note: record just the number, no unit beside it.

Solved entries:
# compound, measurement
measured = [
    ("Oc1ccc(-c2ccc(Cl)cc2)cc1", 0.8821),
    ("O=S(=O)(O)Oc1cc(-c2ccccc2)ccc1Cl [3-PCB 3 sulfate]", 0),
    ("Clc1ccc(Cl)c(-c2c(Cl)ccc(Cl)c2Cl)c1Cl [(-)-PCB 136, 2,2′,3,3′,6,6′-hexachlorobiphenyl]", 0.9077),
]

The record that follows has no cm.mito.90min shown yet.
Identify measured cm.mito.90min corresponding to Clc1ccc(-c2ccccc2)cc1
0.6328

---

Each entry below carries its reported minimal effective concentration.
# System: HUVECs
# assay_procedure: High-content imaging cytotoxicity in HUVECs, 24 h
# Format: cell-based, human
# stated_conditions: Homo sapiens, HUVEC, 24 h, HUVEC, nma, 24 hr; read-out: POD huvec.nma.24hr
Report the value in µM with no unit label.

Solved entries:
# compound, minimal effective concentration (µM)
records = [
    ("Oc1ccc(O)c(-c2ccc(Cl)cc2)c1 [2',5'-diOH-PCB 3, 4-Chloro-2′,5′-dihydroxybiphenyl]", 8.87),
    ("Clc1ccc(-c2cc(Cl)c(Cl)c(Cl)c2)cc1Cl [PCB 126, 3,3′,4,4′,5-pentachlorobiphenyl]", 100),
    ("Clc1cccc(-c2cccc(Cl)c2)c1 [PCB 11, 3,3′-Dichlorobiphenyl]", 9.3),
    ("Oc1cc(Cl)c(-c2cc(Cl)ccc2Cl)cc1Cl [4-OH-PCB 52]", 100),
]

The record that follows has no minimal effective concentration shown yet.
Identify measured minimal effective concentration corresponding to Clc1ccc(Cl)c(-c2c(Cl)ccc(Cl)c2Cl)c1 [PCB 95, 2,2′,3,5′,6-pentachlorobiphenyl]
1.93
